Tested on: IgG antibodies in RA and NHS sera
Assay: ELISA with differently citrullinated EBNA-2(338-358) peptides (Example 6)
Assay type: binding, human
Conditions: 24 RA patients; positive = greater than 97.5th percentile of normal control group
Where no end group is shown, it is not given here. [ ]: non-standard residue; d: D form. Cit = NC(=O)NCCC[C@H](N)C(=O)O
EXPERIMENTAL ENDPOINT: RA positive sera

>>> observed("GQSCitGQSCitGRGCitGRGRGRGKG (GQS[Cit]GQS[Cit]GRG[Cit]GRGRGRGKG)")
"12/24"
>>> observed("GQSRGQSRGRGRGCitGRGRGKG (GQSRGQSRGRGRG[Cit]GRGRGKG) [[Cit^351]EBNA2(338-358)]")
"6/24"
>>> observed("GQSRGQSRGRGCitGRGRGRGKG (GQSRGQSRGRG[Cit]GRGRGRGKG) [[Cit^349]EBNA2(338-358)]")
"9/24"
>>> observed("GQSRGQSCitGRGRGRGRGRGKG (GQSRGQS[Cit]GRGRGRGRGRGKG) [[Cit^345]EBNA2(338-358)]")
"9/24"
>>> observed("GQSRGQSCitGRGRGCitGRGRGKG (GQSRGQS[Cit]GRGRG[Cit]GRGRGKG) [[Cit^345, Cit^351]EBNA2(338-358)]")
"12/24"
>>> observed("GQSRGQSRGRGRGRGRGRGKG [EBNA2(338-358), reference compound]")
"3/24"
>>> observed("GQSRGQSCitGRGCitGRGRGCitGKG (GQSRGQS[Cit]GRG[Cit]GRGRG[Cit]GKG)")
"8/24"
>>> observed("GQSRGQSRGRGRGCitGRGCitGKG (GQSRGQSRGRGRG[Cit]GRG[Cit]GKG; not fully specified) [[Cit^349, Cit^355]EBNA2(338-358)]")
"9/24"
>>> observed("GQSRGQSRGRGRGRGRGCitGKG (GQSRGQSRGRGRGRGRG[Cit]GKG) [[Cit^355]EBNA2(338-358)]")
"3/24"
>>> observed("GQSCitGQSRGRGRGRGRGCitGKG (GQS[Cit]GQSRGRGRGRGRG[Cit]GKG) [[Cit^341, Cit^355]EBNA2(338-358)]")
"8/24"
>>> observed("GQSCitGQSRGRGRGRGRGRGKG (GQS[Cit]GQSRGRGRGRGRGRGKG) [[Cit^341]EBNA2(338-358)]")
"4/24"
